- System: Bel-7402
- Assay Explanation: Cytotoxicity against human Bel7402 cells assessed as growth inhibition at 10 ug/ml after 24 hrs by MTT assay
- Format: functional
- Assay Context: Bel-7402, 24 h, read-out: GI
Values of inhibition of growth at 10 µg/mL greater than or equal to 6% map to T; values below map to F.

>>> df
                                   compound  assigned_category
0  O=C(CCCCC1CCSS1)Nc1cccc(C(F)(F)F)c1 (configuration not stated)                  F
1  O=C(CCCCC1CCSS1)Nc1ccc(Cl)cn1 (configuration not stated)                  T
2  O=C(CCCCC1CCSS1)Nc1ccc(F)cc1 (configuration not stated)                  F
3  O=C(CCCCC(CCSC(=O)c1ccccc1)SC(=O)c1ccccc1)Nc1ccc(Cl)cc1 (configuration not stated)                  F
4  O=C(O)CCCC[C@@H](S)CCS [DIHYDROLIPOIC ACID]                  F
5  O=C(CCCCC1CCSS1)Nc1ccccc1 (configuration not stated)                  F
6  O=C(CCCCC(S)CCS)Nc1ccc(Br)cn1 (configuration not stated)                  T

###

Catalogue of compounds with associated inhibition of growth at 0.1 µg/mL
- Test system: Bel-7402
- Assay Explanation: Cytotoxicity against human Bel7402 cells assessed as growth inhibition at 0.1 ug/ml after 24 hrs by MTT assay
- Type: functional
- Assay Context: Bel-7402, 24 h, read-out: GI
Reported Property: inhibition of growth at 0.1 µg/mL (%)

>>> print(df.to_string())
                                    compound                  reported_property  measured_number
 0  O=C(CCCCC1CCSS1)Nc1ccc(Cl)cc1 (stereo unspecified)  inhibition of growth at 0.1 µg/mL             3.37
 1  O=C(CCCCC1CCSS1)Nc1ccc([N+](=O)[O-])c(C(F)(F)F)c1 (stereo unspecified)  inhibition of growth at 0.1 µg/mL             5.04
 2  CC(=O)SCCC(CCCCC(=O)O)SC(C)=O (stereo unspecified)  inhibition of growth at 0.1 µg/mL             10.3
 3  O=C(CCCCC(CCSC(=O)c1ccccc1)SC(=O)c1ccccc1)Nc1cccc(Cl)c1 (stereo unspecified)  inhibition of growth at 0.1 µg/mL              1.7
 4  O=C(CCCCC(S)CCS)Nc1ccccc1Cl (stereo unspecified)  inhibition of growth at 0.1 µg/mL             5.11
 5  O=C(CCCCC(S)CCS)Nc1ccc([N+](=O)[O-])cc1 (stereo unspecified)  inhibition of growth at 0.1 µg/mL             1.88
 6  O=C(CCCCC1CCSS1)Nc1cccc2ccccc12 (stereo unspecified)  inhibition of growth at 0.1 µg/mL              3.4
 7  Cc1cccc(NC(=O)CCCCC2CCSS2)c1 (stereo unspecified)  inhibition of growth at 0.1 µg/mL             9.88
 8  O=C(CCCCC(S)CCS)Nc1ccccc1 (stereo unspecified)  inhibition of growth at 0.1 µg/mL             0.85
 9  CC(=O)SCCC(CCCCC(=O)Nc1ccc(Cl)cc1)SC(C)=O (stereo unspecified)  inhibition of growth at 0.1 µg/mL             9.96
10  O=C(CCCCC(S)CCS)Nc1cccc(Cl)c1 (stereo unspecified)  inhibition of growth at 0.1 µg/mL             3.09
11  O=C(CCCCC(S)CCS)Nc1cccc(C(F)(F)F)c1 (stereo unspecified)  inhibition of growth at 0.1 µg/mL             2.85
12  O=C(O)CCCC[C@@H](S)CCS [DIHYDROLIPOIC ACID]  inhibition of growth at 0.1 µg/mL             10.4
13  CC(=O)SCCC(CCCCC(=O)Nc1cccc(Cl)c1)SC(C)=O (stereo unspecified)  inhibition of growth at 0.1 µg/mL             3.72
14  COc1ccc(NC(=O)CCCCC(S)CCS)cc1 (stereo unspecified)  inhibition of growth at 0.1 µg/mL             5.35
15  O=C(CCCCC1CCSS1)Nc1ccccc1 (stereo unspecified)  inhibition of growth at 0.1 µg/mL             3.22
